# tgt: UniProt P31645
# test_description: hSERT radioligand binding assay (3H-citalopram)
# Parameters: expressed in transfected cells; host or cells: HEK-293
# test_parameters: hSERT membranes (HEK-293), 1.0 nM 3H-citalopram
test_readout: SERT pKi

Past entries and their recorded results:
{"compound": "Cc1ccccc1O[C@@H](c1nccs1)[C@H]1CCNC1", "SERT pKi": "≧7.0"}
{"compound": "Fc1ccc(OC(c2nccs2)C2CCNC2)c(F)c1F (centres unmarked)", "SERT pKi": "≧7.0"}
{"compound": "Cc1cc(Cl)c(OC(c2nccs2)C2CCNC2)c(Cl)c1.O=C(O)C(F)(F)F (mixture of isomers)", "SERT pKi": "≧7.0"}
{"compound": "Cc1cccc(O[C@@H](c2ccccc2)[C@H]2CCNC2)n1.O=C(O)C(F)(F)F", "SERT pKi": "≧5.0"}
{"compound": "Clc1cccc(O[C@@H](c2ncco2)[C@H]2CCNC2)c1Cl.O=C(O)C(F)(F)F", "SERT pKi": "≧7.0"}

## Input Item: `Cc1ccc(O[C@@H](c2ccccc2)[C@H]2CCNC2)nc1.O=C(O)C(F)(F)F` Test system: UniProt P31645 Read-out: SERT pKi Value: ?
## Output ≧5.0

## Input Then what about the compound `Fc1cc(Cl)cnc1O[C@@H](c1ccccc1)[C@H]1CCNC1.O=C(O)C(F)(F)F` ?
## Output ≧7.0

## Input Then what about the compound `Fc1ccc(O[C@@H](c2ncco2)[C@H]2CCNC2)c(Cl)c1.O=C(O)C(F)(F)F` ?
## Output ≧5.0

* * *

# tgt: SERT (Homo sapiens, UniProt P31645)
# Sequence (P31645 whole entry): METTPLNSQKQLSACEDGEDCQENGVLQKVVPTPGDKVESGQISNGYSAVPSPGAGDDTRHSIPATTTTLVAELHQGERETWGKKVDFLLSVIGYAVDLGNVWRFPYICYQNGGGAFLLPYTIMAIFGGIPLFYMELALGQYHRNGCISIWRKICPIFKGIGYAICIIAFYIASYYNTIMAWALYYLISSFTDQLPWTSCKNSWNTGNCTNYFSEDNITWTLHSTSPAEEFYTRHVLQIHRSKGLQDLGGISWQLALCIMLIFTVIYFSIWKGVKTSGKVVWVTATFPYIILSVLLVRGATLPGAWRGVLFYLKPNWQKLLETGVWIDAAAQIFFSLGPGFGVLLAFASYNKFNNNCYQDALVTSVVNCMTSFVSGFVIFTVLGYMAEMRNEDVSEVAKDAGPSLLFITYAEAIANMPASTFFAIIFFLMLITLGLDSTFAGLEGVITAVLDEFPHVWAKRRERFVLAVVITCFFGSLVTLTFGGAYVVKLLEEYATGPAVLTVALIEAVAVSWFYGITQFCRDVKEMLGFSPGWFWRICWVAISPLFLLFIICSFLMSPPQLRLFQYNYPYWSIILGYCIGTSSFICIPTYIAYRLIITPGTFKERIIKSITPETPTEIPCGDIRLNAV
# test_description: hSERT radioligand binding assay (3H-citalopram)
# Set-up: expressed in transfected cells; host or cells: HEK-293
# test_parameters: hSERT membranes (HEK-293), 1.0 nM 3H-citalopram
# Description: Membrane radioligand binding assays were used to measure inhibition of labeled ligand (^3H-citalopram or ^3H-nisoxetine or ^3H-WIN35428) binding to membranes prepared from cells expressing the respective human recombinant transporter (hSERT or hNET or hDAT) in order to determine the pKi values of test compounds at the transporters. […]
test_readout: SERT pKi

Past entries and their recorded results:
{"compound_smiles": "Cc1cc(Cl)cc(C)c1O[C@H](c1cncc(Cl)c1)[C@@H]1CCNC1", "SERT pKi": "≧7.0"}
{"compound_smiles": "COc1ccc(O[C@@H](c2ccccc2)[C@H]2CCNC2)cn1.O=C(O)C(F)(F)F", "SERT pKi": "≧7.0"}
{"compound_smiles": "Fc1cc(Cl)c(O[C@H](c2cncc(Cl)c2)[C@@H]2CCNC2)c(Cl)c1", "SERT pKi": "≧7.0"}
{"compound_smiles": "Cc1cccc(C)c1O[C@@H](c1ncco1)[C@H]1CCNC1.O=C(O)C(F)(F)F", "SERT pKi": "≧7.0"}

Please turn your attention to the following entry.
## Input Item: `Fc1ccc(O[C@@H](c2ccccc2)[C@H]2CCNC2)cn1.O=C(O)C(F)(F)F` Test system: SERT (Homo sapiens, UniProt P31645) Read-out: SERT pKi Value: ?
## Output ≧7.0

* * *

# tgt: SERT (Homo sapiens)
# test_description: hSERT radioligand binding assay (3H-citalopram)
# Design: expressed in transfected cells; host or cells: HEK-293
# test_parameters: hSERT membranes (HEK-293), 1.0 nM 3H-citalopram
test_readout: SERT pKi

Past entries and their recorded results:
{"compound": "Clc1ccccc1O[C@@H](c1ncco1)[C@H]1CCNC1 [6-19]", "result": "≧5.0"}
{"compound": "CC(=O)c1c(O[C@@H](c2ncco2)[C@H]2CCNC2)ccc(Cl)c1Cl.O=C(O)C(F)(F)F [6-27]", "result": "≧7.0"}
{"compound": "Fc1ccc(O[C@@H](c2nccs2)[C@H]2CCNC2)cc1Cl [Example 5-30]", "result": "≧7.0"}
{"compound": "COc1cccc(F)c1O[C@@H](c1ncco1)[C@H]1CCNC1.O=C(O)C(F)(F)F [6-41]", "result": "≧5.0"}
{"compound": "FC(F)(F)c1ccc(O[C@@H](c2ccccc2)[C@H]2CCNC2)nc1.O=C(O)C(F)(F)F [14-23]", "result": "≧7.0"}
{"compound": "CCOc1ncccc1O[C@@H](c1ccccc1)[C@H]1CCNC1.O=C(O)C(F)(F)F [15-20]", "result": "≧7.0"}
{"compound": "Clc1ncccc1O[C@H](c1ccccc1)[C@@H]1CCNC1.O=C(O)C(F)(F)F [15-5]", "result": "≧7.0"}
{"compound": "Fc1cnc(O[C@H](c2ccccc2)[C@@H]2CCNC2)c(F)c1.O=C(O)C(F)(F)F [14-16]", "result": "≧7.0"}

Please turn your attention to the following entry.
## Input I'd like to know its SERT pKi. The compound in question is Cc1c(O[C@@H](c2ccccc2)[C@H]2CCNC2)ccnc1Cl.O=C(O)C(F)(F)F [16-1]
## Output ≧7.0

* * *

# tgt: NET (Homo sapiens)
# test_description: hNET radioligand binding assay (3H-nisoxetine)
# Design: expressed in transfected cells; host or cells: HEK-293
# test_parameters: hNET membranes (HEK-293), 1.0 nM 3H-nisoxetine; read-out: NET pKi (converted)
test_readout: Ki

Past entries and their recorded results:
{"compound": "COc1ccccc1O[C@H](c1cncc(Cl)c1)[C@H]1CCNC1", "tgt": "NET (Homo sapiens)", "test_readout": "Ki", "result": "≤ 10 µM"}
{"compound": "Fc1ccc(OC(c2nccs2)C2CCNC2)c(F)c1F (centres unmarked) [Example 5-1]", "tgt": "NET (Homo sapiens)", "test_readout": "Ki", "result": "≤ 10 µM"}
{"compound": "Fc1cc(F)c(O[C@H](c2ccncc2)[C@H]2CCNC2)c(F)c1", "tgt": "NET (Homo sapiens)", "test_readout": "Ki", "result": "≤ 0.1 µM"}

## Input I'd like to know its Ki. The compound in question is `Fc1cncc([C@H](Oc2c(F)cc(F)cc2F)[C@H]2CCNC2)c1`
## Output ≤ 0.1 µM

## Input Then what about the compound `Clc1cccc(Cl)c1O[C@H](c1cccnc1)[C@H]1CCNC1` ?
## Output ≤ 0.1 µM

## Input Then what about the compound `Cc1cc(Cl)cnc1O[C@@H](c1ccccc1)[C@H]1CCNC1` ?
## Output ≤ 0.1 µM

## Input Then what about the compound `COc1cc(Cl)ccc1O[C@@H](c1cncc(F)c1)[C@H]1CCNC1` ?
## Output ≤ 0.1 µM

## Input Then what about the compound Cc1cc(Cl)ccc1OC(c1nccs1)[C@H]1CCNC1 (single isomer, unassigned) ?
## Output ≤ 0.1 µM

* * *

# tgt: NET (Homo sapiens, UniProt P23975)
# Sequence (P23975 whole entry): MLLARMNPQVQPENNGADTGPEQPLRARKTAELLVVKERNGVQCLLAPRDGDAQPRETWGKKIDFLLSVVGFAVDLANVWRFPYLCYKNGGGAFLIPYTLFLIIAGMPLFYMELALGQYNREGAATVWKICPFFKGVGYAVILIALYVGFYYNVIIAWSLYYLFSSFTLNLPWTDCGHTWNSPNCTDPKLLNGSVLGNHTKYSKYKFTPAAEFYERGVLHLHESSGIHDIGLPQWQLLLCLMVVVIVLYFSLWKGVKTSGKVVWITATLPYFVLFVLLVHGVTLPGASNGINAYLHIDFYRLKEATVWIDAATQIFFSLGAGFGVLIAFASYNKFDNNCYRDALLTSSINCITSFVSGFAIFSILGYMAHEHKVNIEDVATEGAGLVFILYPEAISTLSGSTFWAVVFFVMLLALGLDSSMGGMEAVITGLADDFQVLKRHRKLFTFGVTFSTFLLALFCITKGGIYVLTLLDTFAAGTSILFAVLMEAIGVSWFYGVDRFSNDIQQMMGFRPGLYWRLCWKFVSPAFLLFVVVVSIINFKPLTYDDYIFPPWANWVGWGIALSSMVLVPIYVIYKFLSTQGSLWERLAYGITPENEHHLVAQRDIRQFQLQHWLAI
# test_description: hNET radioligand binding assay (3H-nisoxetine)
# Design: expressed in transfected cells; host or cells: HEK-293
# test_parameters: hNET membranes (HEK-293), 1.0 nM 3H-nisoxetine
Marks after values point to notes of the source that are not given here.
test_readout: NET pKi

{"compound_smiles": "Fc1cc(O[C@@H](c2ccccc2)[C@H]2CCNC2)ccn1.O=C(O)C(F)(F)F", "result": "≧5.0"}
{"compound_smiles": "Fc1c(Cl)ccc(O[C@@H](c2ncco2)[C@H]2CCNC2)c1Cl.O=C(O)C(F)(F)F", "result": "≧7.0"}
{"compound_smiles": "CC(=O)c1c(O[C@@H](c2ncco2)[C@H]2CCNC2)ccc(Cl)c1Cl.O=C(O)C(F)(F)F", "result": "~5.0*"}
{"compound_smiles": "Cc1cccc(C)c1O[C@@H](c1ncco1)[C@H]1CCNC1.O=C(O)C(F)(F)F", "result": "≧7.0"}

* * *

# tgt: NET (Homo sapiens)
# test_description: hNET radioligand binding assay (3H-nisoxetine)
# Parameters: expressed in transfected cells; host or cells: HEK-293
# test_parameters: hNET membranes (HEK-293), 1.0 nM 3H-nisoxetine; read-out: NET pKi (converted)
test_readout: Ki

{"compound": "COc1ncccc1O[C@@H](c1ccccc1)C1CCNC1 (stereo partly shown)", "tgt": "NET (Homo sapiens)", "test_readout": "Ki", "result": "≤ 100 nM"}

Please turn your attention to the following entry.
## Input I'd like to know its Ki. The compound in question is `Cc1cc(Cl)ccc1O[C@H](c1cnccn1)[C@H]1CCNC1`
## Output ≤ 10000 nM

* * *

# tgt: SERT (Homo sapiens, UniProt P31645)
# test_description: hSERT radioligand binding assay (3H-citalopram)
# Set-up: expressed in transfected cells; host or cells: HEK-293
# test_parameters: hSERT membranes (HEK-293), 1.0 nM 3H-citalopram
test_readout: SERT pKi

{"molecule": "Cc1cc(Cl)ccc1O[C@@H](c1cncnc1)[C@H]1CCNC1.O=C(O)C(F)(F)F [12-3]", "tgt": "SERT (Homo sapiens, UniProt P31645)", "SERT pKi": "≧7.0"}
{"molecule": "Fc1ccc(F)c(O[C@@H](c2cncnc2)[C@H]2CCNC2)c1Cl.O=C(O)C(F)(F)F [12-1]", "tgt": "SERT (Homo sapiens, UniProt P31645)", "SERT pKi": "≧5.0"}
{"molecule": "Cc1c(Cl)cccc1O[C@@H](c1ncco1)[C@H]1CCNC1.O=C(O)C(F)(F)F [6-50]", "tgt": "SERT (Homo sapiens, UniProt P31645)", "SERT pKi": "≧7.0"}
{"molecule": "Fc1cc(F)c(O[C@@H](c2ccccc2)[C@H]2CCNC2)nc1F.O=C(O)C(F)(F)F [14-1]", "tgt": "SERT (Homo sapiens, UniProt P31645)", "SERT pKi": "≧7.0"}
{"molecule": "Cc1nc(O[C@@H](c2ccccc2)[C@H]2CCNC2)c(Br)cc1Br.O=C(O)C(F)(F)F [14-12]", "tgt": "SERT (Homo sapiens, UniProt P31645)", "SERT pKi": "≧7.0"}
{"molecule": "Clc1ccc(O[C@H](c2ccccc2)[C@@H]2CCNC2)nc1.O=C(O)C(F)(F)F [14-27]", "tgt": "SERT (Homo sapiens, UniProt P31645)", "SERT pKi": "≧7.0"}

## Input I'd like to know its SERT pKi. The molecule in question is Cc1cc(Cl)cc(C)c1O[C@@H](c1ncco1)[C@H]1CCNC1.O=C(O)C(F)(F)F [6-15]
## Output ≧7.0

## Input Then what about the molecule Fc1cncc([C@H](Oc2cccc3ccccc23)[C@H]2CCNC2)c1.O=C(O)C(F)(F)F [19-2] ?
## Output ≧7.0

## Input Then what about the molecule COc1ccccc1O[C@@H](c1cnccn1)[C@H]1CCNC1.O=C(O)C(F)(F)F [10-7] ?
## Output ≧5.0

## Input Then what about the molecule Cc1ccnc(OC(c2ccccc2)C2CCNC2)c1 (stereo not drawn) [14-32] ?
## Output ≧7.0

## Input Then what about the molecule Fc1c(Cl)nc(O[C@@H](c2ccccc2)[C@H]2CCNC2)c(F)c1Cl.O=C(O)C(F)(F)F [14-6] ?
## Output ≧7.0

## Input Then what about the molecule O=C(O)C(F)(F)F.c1ccc([C@H](Oc2ccccn2)[C@H]2CCNC2)cc1 [14-41] ?
## Output ≧7.0
